Cited source: ChEMBL document CHEMBL2331479

Species: Homo sapiens
Experimental protocol: Selectivity ratio of Ki for human carbonic anhydrase 1 to Ki for human carbonic anhydrase 9
Readings of Ratio Ki for the listed compounds
Experimental readout: Ratio Ki

Compound: CC(C)(F)CNS(=O)(=O)c1ccc(N)cc1
Observed result: 2.1

Compound: Nc1ccc(S(=O)(=O)NCCC(F)F)cc1
Observed result: 2

Compound: CC(F)CNc1ccc(S(N)(=O)=O)cc1 (stereo not given)
Observed result: 4

Compound: CC(=O)Nc1ccc(S(=O)(=O)NCC(C)F)cc1 (stereo not given)
Observed result: 1.1

Compound: C=C(Cl)CN(CC(=C)Cl)S(=O)(=O)c1ccc(N)cc1
Observed result: 92.8

Compound: NS(=O)(=O)c1ccc2c(c1)CCCN2
Observed result: 3.8

Compound: CC1CN(C)S(=O)(=O)c2ccc(N)cc21 (stereo not given)
Observed result: 4.7

Compound: NS(=O)(=O)c1ccc(Nc2nc(Cl)nc(NCCO)n2)cc1
Observed result: 1460

Compound: C=C(Cl)CNS(=O)(=O)c1ccc(N)cc1
Observed result: 62

Compound: Nc1ccc(S(=O)(=O)NCCC(F)Cl)cc1 (stereo not given)
Observed result: 2.7

Compound: CCCNS(=O)(=O)c1ccc(N)cc1
Observed result: 2.5

Compound: CC(F)(Cl)CNS(=O)(=O)c1ccc(N)cc1 (stereo not given)
Observed result: 2.1

Compound: C=CCNc1ccc(S(N)(=O)=O)cc1
Observed result: 1.5

Compound: C=C(C)CNS(=O)(=O)c1ccc(N)cc1
Observed result: 2.1

Compound: CC(F)(F)CNS(=O)(=O)c1ccc(N)cc1
Observed result: 3.2

---

Measured on: Carbonic anhydrase 12 (Homo sapiens)
Sequence (O43570 whole entry): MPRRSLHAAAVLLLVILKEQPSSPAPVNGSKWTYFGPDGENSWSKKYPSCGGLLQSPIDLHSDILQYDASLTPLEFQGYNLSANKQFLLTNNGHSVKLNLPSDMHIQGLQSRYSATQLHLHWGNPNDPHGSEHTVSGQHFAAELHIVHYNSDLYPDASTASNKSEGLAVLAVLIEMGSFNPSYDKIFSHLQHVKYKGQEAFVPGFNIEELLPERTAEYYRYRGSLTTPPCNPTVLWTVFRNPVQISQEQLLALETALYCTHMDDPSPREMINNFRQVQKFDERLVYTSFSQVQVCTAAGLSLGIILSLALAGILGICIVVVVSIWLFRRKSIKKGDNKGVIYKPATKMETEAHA
Please respond with Fulfilled when measured Ki is strictly beneath 1000 nM, and with Not fulfilled in all other cases.

Compound: Nc1ccc(S(=O)(=O)NCCC(F)Cl)cc1 (configuration not stated)
Class assignment: Not fulfilled

Compound: CCCNS(=O)(=O)c1ccc(N)cc1
Class assignment: Not fulfilled

Compound: NS(=O)(=O)c1ccc2c(c1)CCCN2
Class assignment: Fulfilled

Compound: CC(C)(F)CNS(=O)(=O)c1ccc(N)cc1
Class assignment: Fulfilled

Compound: Nc1ccc(S(=O)(=O)NCCC(F)F)cc1
Class assignment: Not fulfilled

Compound: CC(F)(F)CNS(=O)(=O)c1ccc(N)cc1
Class assignment: Fulfilled

Compound: C=C(C)CNS(=O)(=O)c1ccc(N)cc1
Class assignment: Not fulfilled

---

Readings of Ki for the listed compounds
Measured on: Carbonic anhydrase 1 (Homo sapiens)
Sequence (P00915 whole entry): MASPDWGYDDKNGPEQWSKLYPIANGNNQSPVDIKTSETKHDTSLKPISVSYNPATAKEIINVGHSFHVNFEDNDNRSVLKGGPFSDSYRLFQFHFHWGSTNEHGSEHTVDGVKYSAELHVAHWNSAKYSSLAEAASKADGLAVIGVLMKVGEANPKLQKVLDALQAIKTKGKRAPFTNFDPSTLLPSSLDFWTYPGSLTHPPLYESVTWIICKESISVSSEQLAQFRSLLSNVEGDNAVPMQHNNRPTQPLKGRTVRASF
Experimental protocol: Inhibition of human recombinant carbonic anhydrase 1 preincubated for 15 mins by CO2 hydration stopped-flow assay

Compound: Cc1ccc(S(=O)(=O)Nc2ccccc2)cc1
Output unit: µM
Ki: 0.419

Compound: CC(F)(F)CNS(=O)(=O)c1ccc(N)cc1
Output unit: µM
Ki: 0.151

Compound: CC(F)CNc1ccc(S(N)(=O)=O)cc1 (stereo not given)
Output unit: µM
Ki: 0.175

Compound: CC1CN(C)S(=O)(=O)c2ccc(N)cc21 (stereo not given)
Output unit: µM
Ki: 0.637

Compound: C=C(Cl)CNS(=O)(=O)c1ccc(N)cc1
Output unit: µM
Ki: 5.63

Compound: C=CCNc1ccc(S(N)(=O)=O)cc1
Output unit: µM
Ki: 2.08

Compound: C=C(C)CNS(=O)(=O)c1ccc(N)cc1
Output unit: µM
Ki: 7.14

Compound: CC(=O)Nc1ccc(S(=O)(=O)NCC(C)F)cc1 (stereo not given)
Output unit: µM
Ki: 4.8

Compound: CC(C)(F)CNS(=O)(=O)c1ccc(N)cc1
Output unit: µM
Ki: 0.174

Compound: C=C(Cl)CN(CC(=C)Cl)S(=O)(=O)c1ccc(N)cc1
Output unit: µM
Ki: 6.8

Compound: Nc1ccc(S(=O)(=O)NCCC(F)Cl)cc1 (stereo not given)
Output unit: µM
Ki: 6.76

Compound: NS(=O)(=O)c1ccc2c(c1)CCCN2
Output unit: µM
Ki: 0.192

Compound: CCCNS(=O)(=O)c1ccc(N)cc1
Output unit: µM
Ki: 5.14

Compound: CC(F)(Cl)CNS(=O)(=O)c1ccc(N)cc1 (stereo not given)
Output unit: µM
Ki: 5.18

Compound: Nc1ccc(S(=O)(=O)NCCC(F)F)cc1
Output unit: µM
Ki: 4.22
